target: delta opioid receptor (Rattus norvegicus, UniProt P33533); construct: the forebrains were homogenized in Tris buffer in a Teflon®-glass homogenizer; from tissue; host or cells: forebrain of male Wistar rats, particulate (membrane) preparation; experiment: Rat brain delta opioid receptor binding assay; settings: δ-binding (Naltrindole ligand) Ki, rat forebrain, [3H]naltrindole ligand
Sequence (P33533 whole entry): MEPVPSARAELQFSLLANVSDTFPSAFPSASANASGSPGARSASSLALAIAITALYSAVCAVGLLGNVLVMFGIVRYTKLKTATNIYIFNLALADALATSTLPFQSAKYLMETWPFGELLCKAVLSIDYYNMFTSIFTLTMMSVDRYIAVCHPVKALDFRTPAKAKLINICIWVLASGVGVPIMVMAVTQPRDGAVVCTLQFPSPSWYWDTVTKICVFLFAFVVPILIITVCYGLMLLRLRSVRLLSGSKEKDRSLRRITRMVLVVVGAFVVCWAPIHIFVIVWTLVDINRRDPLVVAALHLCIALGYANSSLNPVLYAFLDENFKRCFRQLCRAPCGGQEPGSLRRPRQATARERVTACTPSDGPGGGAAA
test readout: log10 of Ki (log10 of the value in nM)
Response schema: value (number) is log10 of Ki in units of nM.

Below, each entry is followed by its recorded log10 of Ki result.
molecule=Cc1nc2ccc(Oc3nc(-c4cncc(C#N)c4)ncc3NC[C@@H]3CCCN3)cc2s1 recorded_measurement=0.95
molecule=COc1ccc(Oc2nc(-c3cccc([N+](=O)[O-])c3)ncc2NC[C@@H]2CCCN2)cc1 recorded_measurement=1.93

Give me log10 of Ki for each of these molecules, listed below.
1. CCCOc1ccc(Oc2nc(-c3cncnc3)ncc2NC[C@@H]2CCCN2)cc1
2. COc1ccc(Oc2nc(-c3cccc(OC(F)(F)F)c3)ncc2NC[C@@H]2CCCN2)cc1

1. 0.90
2. 1.34

Give me log10 of Ki for each of these molecules, listed below.
1. COc1ccc(Oc2nc(-c3ccc4c(c3)CCO4)ncc2NC[C@@H]2CCCN2)cc1
2. COc1ccc(Oc2nc(-c3cncnc3)ncc2NC2CCCNC2)cc1 (stereo not shown)
3. COc1ccc(Oc2nc(-c3cncc(C#N)c3)ncc2NC[C@@H]2CCCN2)cc1
4. COc1ccc(Oc2nc(-c3ccc(F)nc3)ncc2NC[C@@H]2CCCN2)cc1

1. 1.57
2. 0.00
3. 0.61
4. -0.51

Give me log10 of Ki for each of these molecules, listed below.
1. COc1ccc(Oc2nc(-c3ccc(C#N)nc3)ncc2NC[C@@H]2CCCN2)cc1
2. COc1cccc(Oc2nc(-c3cncnc3)ncc2NC[C@@H]2CCCN2)c1

1. 1.04
2. 1.77

* * *

molecular target: delta opioid receptor (Mus musculus, UniProt P32300); construct: NG108-15 cell membranes were purchased from Applied Cell Sciences (Rockville, Md.); host or cells: NG108-15 cell membranes; assay: [35S]GTPγS binding assay in NG108-15 cell membranes (delta opioid functional assay), 200 nM screen; type: biochemical; conditions: 200 nM test compound; relative to calculated max of SNC80 dose response curve; NG108-15 cell membranes; averages if tested more than once
Sequence (P32300 whole entry): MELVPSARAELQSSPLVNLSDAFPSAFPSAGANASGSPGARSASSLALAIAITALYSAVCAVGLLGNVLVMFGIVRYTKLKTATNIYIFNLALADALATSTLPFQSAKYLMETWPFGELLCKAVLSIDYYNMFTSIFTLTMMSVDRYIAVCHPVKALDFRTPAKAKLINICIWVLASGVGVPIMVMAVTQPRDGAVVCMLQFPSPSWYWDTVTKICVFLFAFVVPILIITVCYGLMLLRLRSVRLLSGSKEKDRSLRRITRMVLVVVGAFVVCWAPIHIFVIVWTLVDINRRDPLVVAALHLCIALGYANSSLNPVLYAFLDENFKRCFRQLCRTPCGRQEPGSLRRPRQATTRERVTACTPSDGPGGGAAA
GTPγS δ-RelEfficacy @200 nM strictly less than 0.4 = Y. Otherwise N.

query_smiles=COCCOc1ccc(Oc2nc(-c3cccnc3)ncc2NC[C@@H]2CCCN2)cc1 tested_target="delta opioid receptor (Mus musculus, UniProt P32300)" answer_label=Y
query_smiles=COc1ccc(Oc2nc(-c3cncnc3)ncc2N(C[C@@H]2CCCN2)C(C)=O)cc1 tested_target="delta opioid receptor (Mus musculus, UniProt P32300)" answer_label=Y
query_smiles=COc1ccc(Oc2nc(-c3cncc(C#N)c3)ncc2N2CC3CC(C2)N3)cc1 tested_target="delta opioid receptor (Mus musculus, UniProt P32300)" answer_label=N
query_smiles=Cc1cc(Oc2nc(-c3cncc(C#N)c3)ncc2NC[C@@H]2CCCN2)ccc1F tested_target="delta opioid receptor (Mus musculus, UniProt P32300)" answer_label=N

For `COc1ccc(Oc2nc(-c3cncc(C#N)c3)ncc2NCc2[nH]cnc2C)cc1` , is the recorded GTPγS δ-RelEfficacy @200 nM below the cut-off of 0.4?
N

For `COc1ccc(Oc2nc(-c3cccnc3)ncc2N[C@H]2CCCNC2)cc1` , is the recorded GTPγS δ-RelEfficacy @200 nM below the cut-off of 0.4?
N

For `O=C(c1cccc(Oc2nc(-c3cccnc3)ncc2NC[C@@H]2CCCN2)c1)N1CCCC1` , is the recorded GTPγS δ-RelEfficacy @200 nM below the cut-off of 0.4?
Y

For `Cc1cccc(Oc2nc(-c3cncc(Cl)c3)ncc2NC[C@@H]2CCCN2)c1` , is the recorded GTPγS δ-RelEfficacy @200 nM below the cut-off of 0.4?
Y

* * *

I'd appreciate it if you could supply GTPγS δ-opioid receptor Rel Efficacy values for the items below.
molecular target: delta opioid receptor (Mus musculus, UniProt P32300); construct: NG108-15 cell membranes were purchased from Applied Cell Sciences (Rockville, Md.); host or cells: NG108-15 cell membranes; test: [35S]GTPγS binding assay in NG108-15 cell membranes (delta opioid functional assay), 200 nM screen; type: biochemical; conditions: relative efficacy from dose response; NG108-15 cell membranes
Numbers only.

compound=COc1ccc(Oc2nc(-c3cccnc3)ncc2NC[C@H]2CCCCN2)cc1 tested_target="delta opioid receptor (Mus musculus, UniProt P32300)" recorded_measurement=0.920
compound="COc1ccc(Oc2nc(-c3cncnc3)ncc2NC2CCCNC2)cc1 (centres unmarked)" tested_target="delta opioid receptor (Mus musculus, UniProt P32300)" recorded_measurement=1.102

Give me GTPγS δ-opioid receptor Rel Efficacy for each of these compounds, listed below.
1. COc1ccc(Oc2nc(-c3cncc(C)c3)ncc2N2CCCNCC2)cc1
2. CCCOc1ccc(Oc2nc(-c3cncc(C#N)c3)ncc2NC[C@@H]2CCCN2)cc1
3. Cc1nc2ccc(Oc3nc(-c4cncc(C#N)c4)ncc3NC[C@@H]3CCCN3)cc2s1
4. Clc1cncc(-c2ncc(NC[C@@H]3CCCN3)c(Oc3ccccc3Cl)n2)c1

1: 0.978; 2: 1.104; 3: 0.538; 4: 0.890

Give me GTPγS δ-opioid receptor Rel Efficacy for each of these compounds, listed below.
1. CSc1ccc(Oc2nc(-c3cncnc3)ncc2NC[C@@H]2CCCN2)cc1
2. COc1ccc(Oc2nc(-c3ccc(N)nc3)ncc2NC[C@@H]2CCCN2)cc1
3. COc1ccc(Oc2nc(-c3cncc(C#N)c3)ncc2NC2CC(N)C2)cc1 (centres unmarked)
4. COc1ccc(Oc2nc(-c3cncc(C#N)c3)ncc2N2CCNC[C@H]2C)cc1
5. CCc1ccc(Oc2nc(-c3cncc(C#N)c3)ncc2NC[C@@H]2C[C@@H](F)CN2)cc1
6. N#Cc1cncc(-c2ncc(NC[C@@H]3CCCN3)c(Oc3ccc(F)cc3)n2)c1
7. COc1ccc(Oc2nc(-c3cncc(OC)c3)ncc2N[C@H]2CCC[C@@H](N)C2)cc1
8. COc1ccc(Oc2nc(-c3cncc(SC)c3)ncc2N[C@@H]2CCCNC2)cc1

1.121
0.905
1.047
1.089
1.119
1.197
1.007
0.928

Give me GTPγS δ-opioid receptor Rel Efficacy for each of these compounds, listed below.
1. COc1ccc(Oc2nc(-c3cncc(OC)c3)ncc2N2CCCNCC2)cc1
2. COc1ccc(Oc2nc(-c3cccnc3)ncc2NC2CCCC(N)C2)cc1 (single isomer, unassigned) [Cpd 307]
3. COc1ccc(Oc2nc(-c3cccnc3)ncc2N2C[C@@H](C)N[C@@H](C)C2)cc1
4. COc1ccc(Oc2nc(-c3cnc(Cl)cc3C)ncc2NC[C@@H]2CCCN2)cc1

1. 1.031
2. 1.191
3. 0.709
4. 1.024

* * *

target: delta opioid receptor (Rattus norvegicus, UniProt P33533); construct: the forebrains were homogenized in Tris buffer in a Teflon®-glass homogenizer; from tissue; host or cells: forebrain of male Wistar rats, particulate (membrane) preparation; assay: Rat brain delta opioid receptor binding assay; conditions: δ-binding (Naltrindole ligand) Ki, rat forebrain, [3H]naltrindole ligand
I'd appreciate it if you could supply pKi values for the items below.
Answers are plain numbers, as −log10 of the molar value.

query_smiles=Fc1ccc(Oc2nc(-c3cccnc3)ncc2NC[C@@H]2CCCN2)cc1 tested_target="delta opioid receptor (Rattus norvegicus, UniProt P33533)" recorded_measurement=8.52
query_smiles=COc1ccc(Oc2nc(-c3cnn(C)c3)ncc2NC[C@@H]2CCCN2)cc1 tested_target="delta opioid receptor (Rattus norvegicus, UniProt P33533)" recorded_measurement=9.00
query_smiles=COc1ccc(Oc2nc(-c3cc(F)cc(OC)c3)ncc2NC[C@@H]2CCCN2)cc1 tested_target="delta opioid receptor (Rattus norvegicus, UniProt P33533)" recorded_measurement=7.33

Give me pKi for each of these compounds, listed below.
1. COc1ccc(Oc2nc(-c3cccc4ncccc34)ncc2NC[C@@H]2CCCN2)cc1
2. COc1ccc(Oc2nc(-c3cccc(C#N)c3)ncc2NC[C@@H]2CCCN2)cc1
3. CCCOc1ccc(Oc2nc(-c3cncc(F)c3)ncc2NC[C@@H]2CCCN2)cc1
4. N#Cc1cncc(-c2ncc(NC[C@@H]3CCCN3)c(Oc3ccc(OC(F)F)cc3)n2)c1

[7.85, 8.21, 7.28, 7.48]

* * *

target: delta opioid receptor (Mus musculus, UniProt P32300); construct: NG108-15 cell membranes were purchased from Applied Cell Sciences (Rockville, Md.); host or cells: NG108-15 cell membranes; assay: [35S]GTPγS binding assay in NG108-15 cell membranes (delta opioid functional assay), 200 nM screen; format: biochemical; conditions: NG108-15 cell membranes; averages if tested more than once; read-out: GTPγS δ-opioid receptor EC50
test readout: EC50 (nM)
Numbers only, in nM.

Below, each entry is followed by its recorded EC50 result.
query_smiles=COc1ccc(Oc2nc(-c3cccnc3)ncc2NC[C@H]2CCCCN2)cc1 test_readout=EC50 recorded_measurement=121
query_smiles=Fc1cncc(-c2ncc(NC[C@@H]3CCCN3)c(Oc3ccc(OC(F)F)cc3)n2)c1 test_readout=EC50 recorded_measurement=330
query_smiles=COc1c(F)cc(Oc2nc(-c3cncc(C#N)c3)ncc2NC[C@@H]2CCCN2)cc1F test_readout=EC50 recorded_measurement=749
query_smiles=COc1ccc(Oc2nc(-c3ccc(O)nc3)ncc2NC[C@@H]2CCCN2)cc1 test_readout=EC50 recorded_measurement=856
query_smiles=COc1ccc(Oc2nc(-c3cncc(C#N)c3)ncc2N2CC3CC(C2)N3)cc1 test_readout=EC50 recorded_measurement=197

Give me EC50 for each of these compounds, listed below.
1. COc1ccc(-c2ncc(NC[C@@H]3CCCN3)c(Oc3ccc(O)cc3)n2)cn1
2. N#Cc1cccc(Oc2nc(-c3cccnc3)ncc2NC[C@@H]2CCCN2)c1
3. COc1ccc(Oc2nc(-c3cnc(-c4cnc(Cl)c(C)c4)c(C)c3)ncc2NC[C@@H]2CCCN2)cc1

[433, 1380, 120]
